Values were extracted from patent US20210292393A1.

target-under-test: 2019 nCoV Spike Protein (RBD, His tag) (SARS-CoV-2, UniProt P0DTC2 329-520)
protocol-description: HT-SPR (Carterra LSA), mAb on chip, RBD (His tag) in solution, 25 C
// reported Kd for each item listed
readout-label: Kd

binder="antibody 481 (antibody, V domains shown) VH: EVQLVESGGGLIQPGGSLRLSCAASGFTVSSNYMSWVRQAPGKGLEWVSVIYSGGSTFYADSVKGRFTISRDNSKNTLYLQMNSLRAEDTAVYYCAREVAGTYDYWGQGTLVTVSS VL: DIQMTQSPSSVSASVGDRVTITCRASQGISSWLAWYQQKPGKAPKLLIYAASSLQSGVPSRFSGSGSGTDFTLTISSLQPEDFATYYCQQANSFPGGTFGPGTKVDIKR" result="0.0141 µM"
binder="antibody 494 (antibody, V domains shown) VH: EVQLVESGGGLVQPGGSLRLSCAASGFTVSSNYMSWVRQAPGKGLEWVSVIYSGGSTFYADSVKGRFTISRDNSKNTLYLQMNSLRAEDTAVYYCARDSGDQLLDYWGQGTLVTVSS VL: DIQLTQSPSFLSASVGDRVTITCRASQGISSYLAWYQQKPGKAPKLLIYAASTLQSGVPSRFSGSGSGTEFTLTISSLQPEDFATYYCQQLNSYPPFTFGPGTKVDIKR" result="0.0135 µM"
binder="antibody 506 (antibody, V domains shown) VH: QITLKESGPTLVKPTQTLTLTCTFSGFSLSTSGVGVGWIRQPPGKALEWLALIYWDDDKRYSPSLKSRLTITKDTSKNQVVLTMTNMDPVDTATYYCAHHSLSSIFDYWGQGTLVTVSS VL: QSALTQPASVSGSPGQSITISCTGTSSDVGDYNYVSWYQQHPGKAPKLMIYEVSNRPSGVSNRFSGSKSGNTASLTISGLQAEDEADYYCSSYTSSSTVFGGGTKLTVLG" result="0.0147 µM"
binder="antibody 292 (antibody, V domains shown) VH: EVQLVESGGGLIQPGGSLRLSCAASGFTVSSNYMSWVRQAPGKGLEWVSVIYSGGSTYYADSVKGRFTISRDNSKNTLYLQMNSLRAEDTAVYYCARDLQGGGGPWGQGTLVTVSS VL: AIQMTQSPSSLSASVGDRVTITCRASQGIRNDLGWYQQKPGKAPKLLIYAASSLQSGVPSRFSGSGSGTDFTLTISSLQPEDFATYYCLQDYNYPRTFGQGTKVEIKR" result="0.00678 µM"
